measurement description: Inhibition of wild-type HIV1 reverse transcriptase in HIV1 infected HEK293T cells harboring luciferase gene assessed as reduction in viral infection after 48 hrs by Bright-Glo luciferase assay
Please respond with TRUE when measured IC50 is strictly beneath 50 nM, and with FALSE in all other cases.

Worked examples follow.
compound	label value
CCOC(=O)c1[nH]c2ccc(Cl)cc2c1C(SC)c1ccccc1 (configuration not stated)	TRUE
CCOC(=O)c1[nH]c2ccc(Cl)cc2c1C(SC)c1cc(C)cc(C)c1 (configuration not stated)	FALSE
CCn1c(=O)[nH]c2cccc(Oc3cc(C#N)ccn3)c21	FALSE
CCn1c(=O)[nH]c2cccc(Oc3cc(Cl)cc(C#N)c3)c21	TRUE
CCn1c(=O)[nH]c2cccc(Oc3ccnc(C#N)c3)c21	FALSE
CCn1c(=O)[nH]c2cccc(Oc3ccccc3)c21	FALSE
CCn1c(=O)[nH]c2cccc(Oc3cccc4ccccc34)c21	FALSE
Cn1c(=O)[nH]c2cccc(Oc3cc(Cl)cc(C#N)c3)c21	TRUE

**Q:** Identify whether the compound CCn1c(=O)[nH]c2cccc(Oc3ccnc(Cl)c3)c21 records IC50 below 50 nM.
**A:** FALSE

**Q:** Check CCn1c(=O)[nH]c2cccc(Oc3cc(C#N)cc(C#N)c3)c21 too.
**A:** FALSE

**Q:** And CCOC(=O)c1[nH]c2ccc(Cl)cc2c1C(OC)c1cc(C)cc(C)c1 (configuration not stated) ?
**A:** TRUE

* * *

Parameter IC50: see the listing below.
measurement description: Inhibition of HIV1 reverse transcriptase Y188H mutant in HIV1 infected HEK293T cells harboring luciferase gene assessed as reduction in viral infection after 48 hrs by Bright-Glo luciferase assay
Write down the numeric answer in nM and omit the unit.

CC1(C)OC(=O)Nc2cccc(Oc3cc(Cl)cc(C#N)c3)c21 1150
Cn1c(=O)[nH]c2cccc(Oc3cc(Cl)cc(C#N)c3)c21 74
CCn1c(=O)[nH]c2cccc(Oc3cc(Cl)cc(C#N)c3)c21 415

Then this compound:
**Q:** Need IC50, item CCn1c(=O)[nH]c2cccc(Oc3cc(C#N)cc(/C=C/C#N)c3)c21
**A:** 468

* * *

measurement description: Inhibition of HIV1 reverse transcriptase V106M mutant in HIV1 infected HEK293T cells harboring luciferase gene assessed as reduction in viral infection after 48 hrs by Bright-Glo luciferase assay
measured endpoint: pIC50
Scale note: pIC50 = -log10(concentration in M).

CCn1c(=O)[nH]c2cccc(Oc3cc(Cl)cc(C#N)c3)c21 6.53
CC1(C)OC(=O)Nc2cccc(Oc3cc(Cl)cc(C#N)c3)c21 6.20
Cn1c(=O)[nH]c2cccc(Oc3cc(Cl)cc(C#N)c3)c21 6.31

**Q:** Tell me the measured pIC50 of CCn1c(=O)[nH]c2cccc(Oc3cc(C#N)cc(/C=C/C#N)c3)c21 , please.
**A:** 6.03

* * *

measurement description: Inhibition of HIV1 reverse transcriptase K103N/Y181C double mutant in HIV1 infected HEK293T cells harboring luciferase gene assessed as reduction in viral infection after 48 hrs by Bright-Glo luciferase assay
measured endpoint: pIC50
The meaning of pIC50 here: minus log10 of the concentration in molar units.

CCn1c(=O)[nH]c2cccc(Oc3cc(Cl)cc(C#N)c3)c21 7.28
CC1(C)OC(=O)Nc2cccc(Oc3cc(Cl)cc(C#N)c3)c21 6.05

Continue with the next molecule.
**Q:** Item under review: CCn1c(=O)[nH]c2cccc(Oc3cc(C#N)cc(/C=C/C#N)c3)c21 . Reported pIC50?
**A:** 7.29

* * *

We begin with a simple list: items and their reported IC50.
measurement description: Inhibition of HIV1 reverse transcriptase Y188C mutant in HIV1 infected HEK293T cells harboring luciferase gene assessed as reduction in viral infection after 48 hrs by Bright-Glo luciferase assay
// return numeric value only (unit: µM, not printed)

CCn1c(=O)[nH]c2cccc(Oc3cc(C#N)cc(/C=C/C#N)c3)c21 0.014
CCn1c(=O)[nH]c2cccc(Oc3cc(Cl)cc(C#N)c3)c21 0.007
Cn1c(=O)[nH]c2cccc(Oc3cc(Cl)cc(C#N)c3)c21 0.236

**Q:** Entry CC1(C)OC(=O)Nc2cccc(Oc3cc(Cl)cc(C#N)c3)c21 : reported IC50 = ?
**A:** 0.007

* * *

The entries below are paired with their reported IC50.
measurement description: Inhibition of HIV1 reverse transcriptase K103N mutant in HIV1 infected HEK293T cells harboring luciferase gene assessed as reduction in viral infection after 48 hrs by Bright-Glo luciferase assay
Please reply with the bare figure in nM and do not write the unit itself.

Examples from the recorded data:
smiles string	scale unit	numeric value
CCn1c(=O)[nH]c2cccc(Oc3cc(Cl)cc(C#N)c3)c21	nM	111
CCn1c(=O)[nH]c2cccc(Oc3cc(C#N)cc(/C=C/C#N)c3)c21	nM	166
CC1(C)OC(=O)Nc2cccc(Oc3cc(Cl)cc(C#N)c3)c21	nM	798

Consider the additional compound presented here.
**Q:** Query: IC50; subject: Cn1c(=O)[nH]c2cccc(Oc3cc(Cl)cc(C#N)c3)c21
**A:** 126

* * *

Recorded IC50 values for a group of compounds are listed next.
measurement description: Inhibition of HIV1 reverse transcriptase G190A mutant in HIV1 infected HEK293T cells harboring luciferase gene assessed as reduction in viral infection after 48 hrs by Bright-Glo luciferase assay
Note: unit nM is implicit; provide only the numeric part.

**Q:** // lookup IC50 for CC1(C)OC(=O)Nc2cccc(Oc3cc(Cl)cc(C#N)c3)c21
**A:** 2760

* * *

measurement description: Inhibition of wild-type HIV1 reverse transcriptase in HIV1 infected HEK293T cells harboring luciferase gene assessed as reduction in viral infection after 48 hrs by Bright-Glo luciferase assay
pIC50: −log10 of the molar value.
Quick rule for you: pIC50 at 7 or higher means Met, lower means Not met.

molecule	label value
CCCn1c(=O)[nH]c2cccc(Oc3cc(Cl)cc(C#N)c3)c21	Met

**Q:** Does CCC(c1ccccc1)n1c(=O)[nH]c2ccc(Cl)cc21 (stereo unspecified) have a reported pIC50 of at least 7?
**A:** Met

**Q:** Next molecule: CCn1c(=O)[nH]c2cccc(Oc3cc(C#N)cc(/C=C/C#N)c3)c21
**A:** Met

**Q:** Moving on to the next molecule: CCn1c(=O)[nH]c2cccc(Oc3cc(C)cc(C)c3)c21
**A:** Not met

**Q:** Can you check CC1(C)OC(=O)Nc2cccc(Oc3cc(Cl)cc(C#N)c3)c21 next?
**A:** Met

**Q:** # iterate: CCOC(=O)c1[nH]c2ccc(Cl)cc2c1C(OC)c1ccccc1 (stereo unspecified)
**A:** Met

* * *

Listed here: items and their measured IC50.
measurement description: Inhibition of HIV1 reverse transcriptase G190A mutant in HIV1 infected HEK293T cells harboring luciferase gene assessed as reduction in viral infection after 48 hrs by Bright-Glo luciferase assay
Reply with the number, then its unit.

A selection of reference data follows.
CCn1c(=O)[nH]c2cccc(Oc3cc(C#N)cc(/C=C/C#N)c3)c21 377 nM
CCn1c(=O)[nH]c2cccc(Oc3cc(Cl)cc(C#N)c3)c21 126 nM

Moving on to another compound below.
**Q:** # IC50 lookup, item Cn1c(=O)[nH]c2cccc(Oc3cc(Cl)cc(C#N)c3)c21
**A:** 107 nM
